src = the supplement of paper PMC9233669

# Test system: biotinyl-Trp-oxazolone
# assay.text: self-aminoacylation, catalytic enhancement (BWO) (fold over background); higher = more active; k-Seq, kA / k0A0; sequences stand for … in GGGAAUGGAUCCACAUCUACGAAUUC…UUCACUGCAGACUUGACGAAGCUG
Variants at the floor of the assay were thinned out.
# Lookup of reported self-aminoacylation keyed by entry
Hey, just send me the number, nothing else.

Some solved cases for reference:
CUACUUCAUACAAUCGGGCUG [Fam1A.1 aminoacylation ribozyme variant] : 0.764
AAGUUUACUAGUAGUCGCAAG [Fam3.1 aminoacylation ribozyme variant] : 1.29
AAGUUUGCUAUUAGUCGCAAG [Fam3.1 aminoacylation ribozyme variant] : 0.826

For the next question, use this sequence.
Challenge: For the record CUACACUUCCAGCAAUCGGUC [Fam1B.1 aminoacylation ribozyme variant] , what value of self-aminoacylation is listed for biotinyl-Trp-oxazolone?
Response given: 0.707

====

Reported self-aminoacylation values are given for each entry in this list.
# Test system: biotinyl-Phe-oxazolone
# assay.text: self-aminoacylation, catalytic enhancement (BFO) (fold over background); higher = more active; k-Seq, kA / k0A0; sequences stand for … in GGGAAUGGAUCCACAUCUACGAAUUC…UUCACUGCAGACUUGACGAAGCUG
This sample holds only a part of the variants without activity.
// no unit string in output, number only

Study these solved cases before continuing.
GGACUUCAAACAAUCGGUCUG [Fam1A.1 aminoacylation ribozyme variant] : 122
CUACUUCAAAUCAUCGGUCUG [Fam1A.1 aminoacylation ribozyme variant] : 0.771
AUAACCCUGGUCAUUGAGUGA [Fam2.1 aminoacylation ribozyme variant] : 36.7

Challenge: // query self-aminoacylation value for entry AUGACCCUGGUCACCGAGUGA [Fam2.1 aminoacylation ribozyme variant]
Response given: 45.5

Challenge: Same for AUUUCCCUGGUAAUCGAGUGA [Fam2.1 aminoacylation ribozyme variant]
Response given: 57.7

Challenge: Same question for AUUCACCUACGUCAUUGGGUG [Fam2.2 aminoacylation ribozyme variant] please.
Response given: 10.9

Challenge: How about this sequence: CUACUUCAAAUAAUCAGUCUG [Fam1A.1 aminoacylation ribozyme variant]
Response given: 8.19

Challenge: Repeat with AUUCACCAAGGUCAUCGGGAG [Fam2.2 aminoacylation ribozyme variant]
Response given: 4.38

Challenge: Likewise for CUACUUCAAACGAUCGGCCUG [Fam1A.1 aminoacylation ribozyme variant] ?
Response given: 1.59

====

# System: biotinyl-Ile-oxazolone
# assay.text: self-aminoacylation, catalytic enhancement (BIO) (fold over background); higher = more active; k-Seq, kA / k0A0; sequences stand for … in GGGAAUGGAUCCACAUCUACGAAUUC…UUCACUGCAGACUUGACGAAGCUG
Fewer inactive variants are shown than the library holds.
Would you please tag the item class 1 when its self-aminoacylation is 2 or above, and class 0 when it is below?

Sample answers from the record:
AUUAACCUAGGUCAUCCGGUG [Fam2.2 aminoacylation ribozyme variant] : class 1
GUUCACCUAGGUCAUCCGGUG [Fam2.2 aminoacylation ribozyme variant] : class 1
AUUCAGCUCGGUCAUCGGGUG [Fam2.2 aminoacylation ribozyme variant] : class 1
CCACACUUCUGGCAAUCGGUC [Fam1B.1 aminoacylation ribozyme variant] : class 0
CCACACUUGAAGCAAUUGGUC [Fam1B.1 aminoacylation ribozyme variant] : class 0
AUUCACCUCGGUCAUCUGGUG [Fam2.2 aminoacylation ribozyme variant] : class 1
CCCCACUUCAAGCGAUCGGUC [Fam1B.1 aminoacylation ribozyme variant] : class 0
AAGUAUUCUAAUAGUCGCAAG [Fam3.1 aminoacylation ribozyme variant] : class 0
CUAGUUCAAAGAAUCGGUCUG [Fam1A.1 aminoacylation ribozyme variant] : class 0
AAGUUUGCCAAUAUUCGCAAG [Fam3.1 aminoacylation ribozyme variant] : class 0

Consider the additional sequence presented here.
Challenge: Test whether the sequence AUUCACGUAGGUCACCGGGUG [Fam2.2 aminoacylation ribozyme variant] records self-aminoacylation of 2 or higher.
Response given: class 1

====

// reported self-aminoacylation per item
# Tested on: biotinyl-Leu-oxazolone
# assay.text: self-aminoacylation, catalytic enhancement (BLO) (fold over background); higher = more active; k-Seq, kA / k0A0; sequences stand for … in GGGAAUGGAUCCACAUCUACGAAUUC…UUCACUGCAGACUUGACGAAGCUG
This sample holds only a part of the variants without activity.

Observe how each entry below is paired with its result.
AAGUAUGCCAAUAGUCGCAAG [Fam3.1 aminoacylation ribozyme variant] : 1.53
ACUACCCUGGUCAGCGAGUGA [Fam2.1 aminoacylation ribozyme variant] : 6.39
CCACUUCAAACAAUCGGUCUC [Fam1A.1 aminoacylation ribozyme variant] : 2.13

Please look at the following sequence next.
Challenge: Return reported self-aminoacylation; argument: AUUAGCCUGGUCAUCGGGUGA [Fam2.1 aminoacylation ribozyme variant]
Response given: 13.3

====

# Test system: biotinyl-Phe-oxazolone
# assay.text: self-aminoacylation, catalytic enhancement (BFO) (fold over background); higher = more active; k-Seq, kA / k0A0; sequences stand for … in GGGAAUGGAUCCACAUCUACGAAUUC…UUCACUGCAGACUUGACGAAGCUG
This sample holds only a part of the variants without activity.
Outcome label depends on self-aminoacylation relative to 2: at/above gives Criterion met, below gives Criterion not met.

CCACACUUGAAGCAAUCGAUC [Fam1B.1 aminoacylation ribozyme variant] : Criterion not met
AUUACCCUGGUCCUCGAGUAA [Fam2.1 aminoacylation ribozyme variant] : Criterion not met
AUUAUCCUGGUCAUCGAGCGA [Fam2.1 aminoacylation ribozyme variant] : Criterion not met
AUUCGCCUAGGCCAUCGGGUG [Fam2.2 aminoacylation ribozyme variant] : Criterion met
AAGUUUACUAAUAGUCGCGAG [Fam3.1 aminoacylation ribozyme variant] : Criterion met
AUUCACCUAGGUAAGCGGGUG [Fam2.2 aminoacylation ribozyme variant] : Criterion met
CGACACUUCAAGCAUUCGGUC [Fam1B.1 aminoacylation ribozyme variant] : Criterion met
CUGCUUCAAACAAUCGGUAUG [Fam1A.1 aminoacylation ribozyme variant] : Criterion met
ACAGACUUCAAGCAAUCGGUC [Fam1B.1 aminoacylation ribozyme variant] : Criterion met
AUUACCCGGGUCAUGGAGUGA [Fam2.1 aminoacylation ribozyme variant] : Criterion met

Challenge: Hi team, for CCACAGUUCAAGCAAUCGGUC [Fam1B.1 aminoacylation ribozyme variant] , is the recorded self-aminoacylation at or above 2?
Response given: Criterion met

Challenge: # repeat for CCACAUUUCAAGCAUUCGGUC [Fam1B.1 aminoacylation ribozyme variant]
Response given: Criterion not met

Challenge: Another sequence to look at: CUACUUCAGAUAAUCGGUCUG [Fam1A.1 aminoacylation ribozyme variant]
Response given: Criterion not met

====

# Test system: biotinyl-Val-oxazolone
# assay.text: self-aminoacylation, catalytic enhancement (BVO) (fold over background); higher = more active; k-Seq, kA / k0A0; sequences stand for … in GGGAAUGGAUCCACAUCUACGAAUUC…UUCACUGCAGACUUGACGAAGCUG
This sample holds only a part of the variants without activity.
Some sequences, each annotated with its measured self-aminoacylation.
Returns: the value as a bare number; no unit string appended.

Previously resolved entries follow.
CUACUUCACACAAGCGGUCUG [Fam1A.1 aminoacylation ribozyme variant] : 0.993
AAGUUUGCUAAUAGCCGCAAA [Fam3.1 aminoacylation ribozyme variant] : 1.58
CGACACUUCAAGCAUUCGGUC [Fam1B.1 aminoacylation ribozyme variant] : 1.99
CCACAUUUCAAACAAUCGGUC [Fam1B.1 aminoacylation ribozyme variant] : 1.28
AUUCAGCUAGGUCAUCCGGUG [Fam2.2 aminoacylation ribozyme variant] : 5.44
AAGUUUGCUAAUAGUAACAAG [Fam3.1 aminoacylation ribozyme variant] : 1.1

Challenge: What does the record list as self-aminoacylation for CCACACUUCAAUCAAUGGGUC [Fam1B.1 aminoacylation ribozyme variant] ?
Response given: 0.724

Challenge: Could you do the same for AUUCACCUAGGUAAUCGGGUC [Fam2.2 aminoacylation ribozyme variant] , please?
Response given: 0.689

====

Below: a set of entries, each annotated with reported self-aminoacylation.
# Test system: biotinyl-Met-oxazolone
# assay.text: self-aminoacylation, catalytic enhancement (BMO) (fold over background); higher = more active; k-Seq, kA / k0A0; sequences stand for … in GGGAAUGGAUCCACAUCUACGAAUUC…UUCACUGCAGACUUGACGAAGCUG
Fewer inactive variants are shown than the library holds.
# output: bare number, no unit

AUCUACCUAGGUCAUCGGGUG [Fam2.2 aminoacylation ribozyme variant] : 10
AAGUUUGAUAAUAGACGCAAG [Fam3.1 aminoacylation ribozyme variant] : 0.346

As a next step, examine the sequence that follows.
Challenge: What self-aminoacylation value was documented for this sequence, ACACACCUCAAGCAAUCGGUC [Fam1B.1 aminoacylation ribozyme variant] ?
Response given: 0.58
